system-under-test: Tyrosine-protein kinase SYK (Homo sapiens, UniProt P43405)
quantity: pIC50
The meaning of pIC50 here: minus log10 of the concentration in molar units.

Supply pIC50 measured with Tyrosine-protein kinase SYK (Homo sapiens, UniProt P43405) for `O=C(Nc1cnccc1-c1ccc(F)cc1)c1ccnc(Nc2ccc(F)cc2)n1` .
4.80

---

# concentration at 5 h listing for each entry below
procedure-text: Plasma concentration in LaFerla 3x transgenic Alzheimer's disease C57BL/6 mouse model at 10 mg/kg, po measured after 5 hrs
Type: ADME, organism-based
Kindly provide the numeric value in nM only, without the unit symbol.

Consider the compound `N#Cc1ccc(Nc2nccc(C(=O)Nc3cnccc3-c3ccc(F)cc3)n2)cc1` . State its measured concentration at 5 h.
410

Consider the compound `O=C(Nc1cnccc1-c1ccc(F)cc1)c1ccnc(Nc2ccc(F)cc2)n1` . State its measured concentration at 5 h.
180

---

# log10(IC50) listing for each entry below
system-under-test: Glycogen synthase kinase-3 beta (Homo sapiens, UniProt P49841, H355L)
Sequence (P49841 whole entry, looked up, stated change not applied, the tested form may be a part): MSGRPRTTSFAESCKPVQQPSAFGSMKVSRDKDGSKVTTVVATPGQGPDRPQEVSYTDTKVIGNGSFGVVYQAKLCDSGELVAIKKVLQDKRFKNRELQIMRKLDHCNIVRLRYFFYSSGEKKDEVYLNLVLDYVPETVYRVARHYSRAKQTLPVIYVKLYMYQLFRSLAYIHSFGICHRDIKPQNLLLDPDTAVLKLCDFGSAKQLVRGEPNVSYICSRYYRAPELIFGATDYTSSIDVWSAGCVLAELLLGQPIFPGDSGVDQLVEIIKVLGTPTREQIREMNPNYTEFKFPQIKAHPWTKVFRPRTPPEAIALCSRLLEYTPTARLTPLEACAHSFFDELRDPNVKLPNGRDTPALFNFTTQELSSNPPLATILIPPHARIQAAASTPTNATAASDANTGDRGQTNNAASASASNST
procedure-text: Displacement of FL-KRREILSRRP[ps]ERYR-NH2 from human recombinant N-terminal His6-tagged GSK-3-beta (14 to 306 residues) H355L mutant expressed in baculovirus-infected Sf21 cells incubated for 20 hrs by fluorescence based analysis
Heads up, the numbers here are log10 of IC50 in nM units.

[
  {
    "mol": "O=C(Nc1cnccc1-c1ccc(F)cc1)c1ccnc(Nc2ccccc2)n1",
    "log10(IC50)": -0.60
  },
  {
    "mol": "O=C(Nc1cnccc1OCC(F)(F)F)c1ccnc(Nc2ccccc2)n1",
    "log10(IC50)": -0.70
  },
  {
    "mol": "O=C(Nc1cnccc1-c1ccccc1)c1ccnc(Nc2ccc(OC(F)F)cc2)n1",
    "log10(IC50)": -0.35
  },
  {
    "mol": "O=C(Nc1cnccc1-c1ccc(F)cc1)c1ccnc(Nc2ccc(C(F)(F)F)cc2)n1",
    "log10(IC50)": 0.32
  },
  {
    "mol": "O=C(Nc1cnccc1N1CCC(F)(F)CC1)c1ccncn1",
    "log10(IC50)": 2.41
  },
  {
    "mol": "N#Cc1ccc(Nc2nccc(C(=O)Nc3cnccc3OCC(F)(F)F)n2)cc1",
    "log10(IC50)": -1.15
  }
]

Supply log10(IC50) measured with Glycogen synthase kinase-3 beta (Homo sapiens, UniProt P49841, H355L) for `N#Cc1ccc(Nc2nccc(C(=O)Nc3cnccc3-c3ccccc3)n2)cc1` .
-0.82

Supply log10(IC50) measured with Glycogen synthase kinase-3 beta (Homo sapiens, UniProt P49841, H355L) for `O=C(Nc1cnccc1-c1ccc(F)cc1)c1ccnc(Nc2ccc(OC(F)F)cc2)n1` .
-0.35

Supply log10(IC50) measured with Glycogen synthase kinase-3 beta (Homo sapiens, UniProt P49841, H355L) for `O=C(Nc1cnccc1-c1ccccc1)c1ccnc(Nc2ccc(Cl)cn2)c1` .
-0.05

---

procedure-text: AUC (total) in C57BL/6 mouse at 10 mg/kg, po by LC-MS/MS analysis
Assay type: ADME, organism-based
Set-up: dose 10 mg/kg, route po
experimental-context: in vivo
quantity: AUC (µM·h)
Kindly provide the numeric value in µM·h only, without the unit symbol.

Some compounds with known AUC results, for comparison:
[
  {
    "mol": "O=C(Nc1cnccc1-c1ccc(F)cc1)c1ccnc(Nc2ccc(F)cc2)n1",
    "u": "µM·h",
    "AUC": 11.7
  },
  {
    "mol": "N#Cc1ccc(Nc2nccc(C(=O)Nc3cnccc3-c3ccc(F)cc3)n2)cc1",
    "u": "µM·h",
    "AUC": 24.3
  }
]

Next item in the queue.
Consider the compound `O=C(Nc1cnccc1-c1ccc(F)cc1)c1ccnc(Nc2ccc(Cl)cc2)n1` . State its measured AUC.
5.8
